- target.under.test: Estrogen receptor (Homo sapiens)
- experiment.notes: qHTS assay to identify small molecule agonists of the estrogen receptor alpha (ER-alpha) signaling pathway in the presence of an antagonist (AID 1259383); also: nearly all actives have a fitted effect of over 15% in size
- protocol.conditions: VM7Luc4E2 cells, ERE-luciferase, +ICI-182,780, 22 h; series mostly up to 92.4 µM
The source made the active and inactive calls. Calls follow the shape of the full dose curve.
Response enum: Y for active, N for inactive

q: Please indicate how the test categorized CN1CCCC(CC2c3ccccc3Sc3ccccc32)C1 (stereo not given) .
a: N

q: Please indicate how the test categorized `O=C(CCCN1CC=C(n2c(=O)[nH]c3ccccc32)CC1)c1ccc(F)cc1` .
a: N

q: Please indicate how the test categorized `CNC(=O)c1cnn(-c2nc(N)c3ncn([C@@H]4O[C@H](CO)[C@@H](O)[C@H]4O)c3n2)c1` .
a: N

q: Please indicate how the test categorized `O=C(O)CCCCCCCCCCCBr` .
a: N

q: Please indicate how the test categorized `C/C=C(/C(=C/C)c1ccc(O)cc1)c1ccc(O)cc1` .
a: Y

----------
- target.under.test: Nuclear receptor subfamily 1 group I member 2 (Homo sapiens)
- experiment.notes: CYP3A4 induction through human pregnane X receptor (PXR) by small molecules, qHTS assay (AID 1346984); also: nearly all actives have a fitted effect of over 40% in size
- protocol.conditions: DPX-2 HepG2 PXR, CYP3A4-luciferin luminescence, 24 h; series mostly up to 46.1 µM
Inconclusive results are not listed. Active and inactive are the calls of the source. The call rests on the fitted dose curve; in most records, active means well fitted activation curve with a large enough effect in the repeat runs; inconclusive means weak or mixed curves; inactive means no such curve, though single readings can be large or run the other way.
Response enum: active, inactive

Example entries and their recorded answers appear below.
Nc1ncnc2c1ncn2[C@H]1CC[C@@H](CO)O1 | inactive
C[C@]1(Cn2ccnn2)[C@H](C(=O)O)N2C(=O)C[C@H]2S1(=O)=O | inactive
Oc1ccc(Cl)c2cccnc12 | active

q: Please indicate how the test categorized `Cc1[nH]cnc1CN1CCc2c(c3ccccc3n2C)C1=O` .
a: inactive

q: Please indicate how the test categorized CN1CCCC(n2nc(Cc3ccc(Cl)cc3)c3ccccc3c2=O)CC1 (stereo unspecified) .
a: active

q: Please indicate how the test categorized `CN(C)CCC=C1c2ccccc2C=Cc2ccccc21` .
a: active

----------
- experiment.notes: qHTS assay to identify small molecule antagonists of the estrogen related receptor signaling pathway with the pleiotropic PPARgamma coactivator (PGC) from Tox21 10K library (AID 1224841); also: actives are mostly falling curves and most rising ones were filed inactive; nearly all actives have a fitted effect of over 50% in size
- protocol.conditions: PGC/ERR reporter cell line, ONE-Glo luciferase, 18 h; series mostly up to 92.4 µM
Inconclusive results are not listed. Active and inactive are the calls of the source. How the calls were made is not given here.
Response enum: Y for active, N for inactive

q: Please indicate how the test categorized `CCC(C)(C)OC` .
a: N

q: Please indicate how the test categorized `CC1=C(Br)C(=O)C(Br)=C/C1=C(/c1ccccc1S(=O)(=O)O)c1cc(Br)c(O)c(Br)c1C` .
a: Y

q: Please indicate how the test categorized `C[C@H]1C[C@H](O)c2ccsc2S1(=O)=O` .
a: N

q: Please indicate how the test categorized `C/C=C/C=C/C=O` .
a: N

q: Please indicate how the test categorized `Cc1ccccc1N=C(N)Nc1ccccc1C` .
a: N

q: Please indicate how the test categorized `O=c1[nH]c2ccc(Cl)cc2o1` .
a: N

q: Please indicate how the test categorized CC(O)c1ccccc1 (stereo not drawn) .
a: N

q: Please indicate how the test categorized CCOC(=O)C1=C(C)NC(C)=C(C(=O)OC)C1c1cccc(Cl)c1Cl (stereo not drawn) .
a: N

q: Please indicate how the test categorized `Cc1cccc(N(C)C(=S)Oc2ccc3c(c2)CCC3)c1` .
a: N

q: Please indicate how the test categorized `O=Cc1c2ccccc2c(Cl)c2ccccc12` .
a: Y

q: Please indicate how the test categorized `CCOC(=O)c1ccccc1C(=C1C=C(Br)C(=O)C(Br)=C1)c1cc(Br)c(O)c(Br)c1` .
a: Y

q: Please indicate how the test categorized `CC(=O)OCC(=O)NCCCOc1cccc(CN2CCCCC2)c1` .
a: N

q: Please indicate how the test categorized `O=C1Cc2cc(Cl)ccc2N1` .
a: N
